Tested on: COLO 205
Experiment: NCI tumour cell line growth inhibition, 48 h
The source made the active and inactive calls. No stated cut-off is given here; in the data, active = GI50 up to about 1.1 µM and inactive = higher.
experimental readout: GI50

>  <compound>
O=c1[nH]c2nccn2c2c1SCCN2

>  <result>
> 100 µM (inactive)

$$$$
>  <compound>
COC1(OC)N=C(N)C2(C#N)/C(=N/N(C)C)CC(C)C12C#N (stereo not drawn)

>  <result>
> 100 µM (inactive)

$$$$
>  <compound>
O=C(O)c1nc2ccccc2nc1NCc1ccc(F)cc1

>  <result>
31.9 µM (inactive)

$$$$
>  <compound>
CSc1nc(NC2OC(COC(C)=O)C(OC(C)=O)C(OC(C)=O)C2OC(C)=O)c(/N=C/C=N/c2c(NC3OC(COC(C)=O)C(OC(C)=O)C(OC(C)=O)C3OC(C)=O)nc(SC)[nH]c2=O)c(=O)[nH]1 (stereo not drawn)

>  <result>
> 100 µM (inactive)

$$$$
>  <compound>
N#CC(=C1C=CC(=NO)C=C1)c1ccc(Cl)cc1

>  <result>
16.8 µM (inactive)

$$$$
>  <compound>
COc1ccc(-c2oc3c(OC)c(OC)c(OC)c(O)c3c(=O)c2OC)cc1O

>  <result>
11.1 µM (inactive)

$$$$
>  <compound>
O=C1NCN(c2ccccc2)C12CCN(CC1COc3ccccc3O1)CC2 (stereo not drawn)

>  <result>
> 100 µM (inactive)

$$$$
>  <compound>
NCCCCN(CCCN)C(=O)OCc1ccccc1

>  <result>
> 100 µM (inactive)

$$$$
>  <compound>
Cc1noc(C)c1-n1nc2ccc3nonc3c2n1

>  <result>
> 100 µM (inactive)

$$$$
>  <compound>
COC(=O)c1c2c(cc3c1CC1(Cc4cc5c(c(C=O)c4C1)CCCC5)C3)CCCC2 (stereo not drawn)

>  <result>
20.7 µM (inactive)

$$$$
>  <compound>
CC(=O)O[C@]12CCCCCC1C1(O)C(O)CCC[C@H]12 (stereo partly drawn)

>  <result>
> 100 µM (inactive)

$$$$
>  <compound>
Cc1cc(C)nc(NS(=O)(=O)c2ccc(Nc3c4ccccc4nc4ccc(C(=O)Nc5ccc(S(N)(=O)=O)cc5)cc34)cc2)n1

>  <result>
> 100 µM (inactive)

$$$$
>  <compound>
O=C1C(=Cc2cccc(O)c2)N=C(c2ccccc2)N1n1c(-c2ccccc2)nc2ccccc2c1=O

>  <result>
31.4 µM (inactive)

$$$$

====

System: MDA-MB-231
Test: NCI tumour cell line growth inhibition, 48 h
Calls of active or inactive are those of the source. Rule as the data show it: active = GI50 up to about 1.1 µM and inactive = higher.

>  <molecule>
Nc1ncnc2c1ncn2C1C=CC(CP(=O)(O)O)C1 (stereo unspecified)

>  <GI50>
> 100 µM (inactive)

$$$$
>  <molecule>
COC1C(=O)CCC2(CO2)C1(O)C1(C)OC1CCC(C)C (stereo unspecified)

>  <GI50>
15.6 µM (inactive)

$$$$
>  <molecule>
N#Cc1c(-c2ccccc2)[nH]c(=O)n(C2OC(CO)C(O)C(O)C2O)c1=O (stereo unspecified)

>  <GI50>
> 100 µM (inactive)

$$$$
>  <molecule>
COc1cc2c(cc1OC)CN1CCc3ccccc3CC1C2 (stereo unspecified)

>  <GI50>
> 100 µM (inactive)

$$$$
>  <molecule>
NC(Cc1ccc(OCc2ccccc2)cc1)C(=O)NC(Cc1ccccc1)C(=O)Oc1c(Cl)c(Cl)c(Cl)c(Cl)c1Cl (stereo unspecified)

>  <GI50>
13 µM (inactive)

$$$$
>  <molecule>
O=c1[nH]nc(-c2ccccc2)n1/N=C\c1ccccc1

>  <GI50>
> 100 µM (inactive)

$$$$
>  <molecule>
CC1OC(O[C@H]2C3C=CO[C@@H](OC4OC(CO)C(O)C(O)C4O)C3[C@@]3(COC(=O)/C=C/c4ccccc4)O[C@@H]23)C(O)C(O)C1O (stereo partly specified)

>  <GI50>
> 100 µM (inactive)

$$$$
>  <molecule>
Cc1nn2c(C(=O)N/N=C/c3ccc([N+](=O)[O-])cc3)c(C)nc2s1

>  <GI50>
24.1 µM (inactive)

$$$$
>  <molecule>
Clc1ccc(-c2nnc(C34CC5CC(CC(C5)C3)C4)o2)cc1

>  <GI50>
> 100 µM (inactive)

$$$$
>  <molecule>
Cc1cn(C2CC(N=[N+]=[N-])C(C(=O)O)O2)c(=O)[nH]c1=O (stereo unspecified)

>  <GI50>
> 100 µM (inactive)

$$$$
>  <molecule>
CC(C)(C)c1cc(C2COC(=O)COCC(=O)OCCOCCOCCO2)cc(C(C)(C)C)c1O (stereo unspecified)

>  <GI50>
44.6 µM (inactive)

$$$$
>  <molecule>
COc1c(C)c2c(c(O)c1C/C=C(\C)CCC(=O)O)C(=O)OC2

>  <GI50>
2 µM (inactive)

$$$$
>  <molecule>
O=C(O)CN1CCNCCNCC1

>  <GI50>
> 100 µM (inactive)

$$$$
>  <molecule>
COc1cc(Br)cc2cc(-c3cn4ccsc4n3)c(=O)oc12

>  <GI50>
20.6 µM (inactive)

$$$$
>  <molecule>
CC1(O)C(=O)OC2CC([C@]3(O)CCC4[C@@H]5C[C@H]6O[C@]67[C@@H](O)C=CC(=O)[C@]7(C)C5CC[C@@]43C)C1(C)C2 (stereo partly specified)

>  <GI50>
16.7 µM (inactive)

$$$$
>  <molecule>
COC(=O)c1ccc(CCc2cc(O)c(Br)cc2O)cc1

>  <GI50>
15.1 µM (inactive)

$$$$
>  <molecule>
C/C(=N\Nc1nc2ccccc2[nH]1)c1cnccn1

>  <GI50>
2.88 µM (inactive)

$$$$
>  <molecule>
CCn1c(SCC(=O)NNC(=S)Nc2ccc(C)cc2)nc2ccccc2c1=O

>  <GI50>
> 100 µM (inactive)

$$$$
>  <molecule>
CC(CC[C@@]1(O)OC2C[C@H]3[C@@H]4CC[C@H]5CC(OC6OC(CO)C(OC7OC(CO)C(O)C(OC8OCC(O)C(O)C8O)C7OC7OC(CO)C(O)C(O)C7O)C(O)C6O)[C@H](O)CC5(C)[C@H]4CCC3(C)C2[C@@H]1C)COC1OC(CO)C(O)C(O)C1O (stereo partly specified)

>  <GI50>
25.9 µM (inactive)

$$$$
>  <molecule>
Cc1ccc(/N=N/c2ccc(N)cc2C)c(S(N)(=O)=O)c1

>  <GI50>
> 100 µM (inactive)

$$$$
>  <molecule>
O=C1c2ccccc2-c2[nH]c3cn[nH]c(=O)c3c21

>  <GI50>
97.5 µM (inactive)

$$$$
